test system: HepG2; test: cell viability relative to DMSO; higher = less toxic; details: 72 h; 1000 nM
reportedEndpoint: cell viability (%)

C[C@]12CC[C@@H]3c4ccc(O)cc4CC[C@H]3[C@@H]1C[C@@H](O)[C@@H]2O    90.4
COc1c(C)c2c(c(O)c1C/C=C(\C)CCC(=O)OCCN1CCOCC1)C(=O)OC2 [mycophenolate-mofetil]    61.6
C[C@@H](NC(=O)CCc1nc2ccccc2c(=O)[nH]1)c1ccccc1    104
NC1=N[C@@](c2cccc(-c3cncnc3)c2)(c2ccnc(C(F)F)c2)c2cccc(F)c21    118
COc1ccc(Nc2ccn(-c3ccccc3)n2)cc1    114
CC(=O)O[C@H]1C[C@@H]2CC[C@@H]3[C@H](CC[C@@]4(C)[C@H]3C[C@H](N3CC[N+](C)(C)CC3)[C@@H]4OC(C)=O)[C@@]2(C)C[C@@H]1N1CC[N+](C)(C)CC1    96.8
COCCOc1ccc(N2CCN(CCn3ncc4c3nc(N)n3nc(-c5ccco5)nc43)CC2)cc1    99.6
O[C@H]1[C@H](O)[C@@H](O)[C@H](O)[C@@H](O)[C@H]1O    93.3
CC[C@H](C)C(=O)O[C@H]1C[C@@H](C)C=C2C=C[C@H](C)[C@H](CC[C@@H]3C[C@@H](O)CC(=O)O3)[C@H]21    92.3
COc1cc(CN(CCN)C(=O)c2cccs2)ccc1OCc1ccccc1    110
COc1cc(N2CCC(O)CC2)ccc1Nc1cc(Nc2ccccc2S(=O)(=O)C(C)C)c2cc[nH]c2n1    95.5
CS(=O)(=O)c1ccc(-c2cc(Br)sc2-c2ccc(F)cc2)cc1    104
CN1CCCC(n2nc(Cc3ccc(Cl)cc3)c3ccccc3c2=O)CC1 (stereo unspecified)    89.3
NC(CO)C(=O)NNCc1ccc(O)c(O)c1O (stereo unspecified) [benserazide]    85
Cc1onc(-c2ccccc2Cl)c1C(=O)N[C@@H]1C(=O)N2[C@@H]1SC(C)(C)[C@@H]2C(=O)O    90.8
Cc1c(C)c2c(c(C)c1O)CCC(C)(COc1ccc(CC3SC(=O)NC3=O)cc1)O2 (stereo unspecified)    90.6
